ASSAY: Cytotoxicity against human LCC6 cells after 48 hrs by MTT assay
Type: functional, cell-based
CONDITION_LABEL: LCC-6, 48 h
REPORTED_ENDPOINT: IC50

>>> value_measured("CC(=O)Nc1c2sscc-2n(-c2ccc(C)cc2)c1=O")
"220 nM"
>>> value_measured("COc1ccc(-n2c3cssc-3c(NC(C)=O)c2=O)cc1")
"220 nM"
>>> value_measured("COc1ccc(-n2c3cssc-3c(NC(=O)c3cc(F)cc(F)c3)c2=O)c(OC)c1")
"349 nM"
>>> value_measured("O=C(Nc1c2sscc-2n(Cc2ccccc2)c1=O)c1cc(C(F)(F)F)cc(C(F)(F)F)c1")
"1180 nM"
>>> value_measured("COc1ccc(-n2c3cssc-3c(NC(C)=O)c2=O)c(OC)c1")
"190 nM"
>>> value_measured("COc1ccc(-n2c3cssc-3c(NC(=O)c3cc(C(F)(F)F)cc(C(F)(F)F)c3)c2=O)c(OC)c1")
"160 nM"

---

ASSAY: Tmax in mouse at 38.2 umol/kg, ip
CONDITION_LABEL: in vivo
REPORTED_ENDPOINT: Tmax (min)

>>> value_measured("COc1ccc(-n2c3cssc-3c(NC(=O)c3cc(O)c(C(C)C)c(O)c3)c2=O)c(OC)c1")
3

---

ASSAY: Plasma clearance in mouse at 36.8 umol/kg, ip
REPORTED_ENDPOINT: clearance

>>> value_measured("COc1ccc(-n2c3cssc-3c(NC(=O)c3cc(C(F)(F)F)cc(C(F)(F)F)c3)c2=O)c(OC)c1")
"2.9 mL/min/kg"

---

ASSAY: Half life in mouse at 38.2 umol/kg, ip
CONDITION_LABEL: in vivo
REPORTED_ENDPOINT: half-life (h)

>>> value_measured("COc1ccc(-n2c3cssc-3c(NC(=O)c3cc(O)c(C(C)C)c(O)c3)c2=O)c(OC)c1")
1.57

---

Quick reference: pIC50 of the listed items.
ASSAY: Cytotoxicity against human LCC6 cells after 48 hrs by MTT assay
Format: functional, cell-based
CONDITION_LABEL: LCC-6, 48 h
pIC50: −log10 of the molar value.
REPORTED_ENDPOINT: pIC50

>>> value_measured("CCCCC(C)C(=O)Nc1c2sscc-2[nH]c1=O (stereo not given)")
6.70
>>> value_measured("COc1ccc(-n2c3cssc-3c(NC(=O)c3ccc(C(F)(F)F)cc3)c2=O)c(OC)c1")
7.07
>>> value_measured("CC(C)c1ccc(-n2c3cssc-3c(NC(=O)c3cc(O)c(C(C)C)c(O)c3)c2=O)cc1")
7.40
>>> value_measured("COc1ccc(-n2c3cssc-3c(NC(=O)c3ccco3)c2=O)c(OC)c1")
7.55
>>> value_measured("CC(C)c1c(O)cc(C(=O)Nc2c3sscc-3n(Cc3ccccc3)c2=O)cc1O")
6.60
>>> value_measured("COc1ccc(C(=O)Nc2c3sscc-3n(-c3ccc(OC)cc3OC)c2=O)c(OC)c1")
6.60
>>> value_measured("COc1ccc(-n2c3cssc-3c(NC(=O)C(F)(F)F)c2=O)cc1")
6.66
>>> value_measured("COc1ccc(-n2c3cssc-3c(NC(=O)C(F)(F)F)c2=O)c(OC)c1")
7.22
>>> value_measured("COc1ccc(-n2c3cssc-3c(NC(=O)c3cccs3)c2=O)c(OC)c1")
6.68
>>> value_measured("COc1ccc(-n2c3cssc-3c(NC(=O)c3cc(O)c(C(C)C)c(O)c3)c2=O)c(OC)c1")
7.15

---

ASSAY: AUC (0 to 480 mins) in mouse at 36.8 umol/kg, ip
CONDITION_LABEL: plasma
REPORTED_ENDPOINT: AUC(0-t) at 8 h (µM·h)

>>> value_measured("COc1ccc(-n2c3cssc-3c(NC(=O)c3cc(C(F)(F)F)cc(C(F)(F)F)c3)c2=O)c(OC)c1")
210

---

ASSAY: Tmax in mouse at 36.8 umol/kg, ip
CONDITION_LABEL: in vivo
REPORTED_ENDPOINT: Tmax (min)

>>> value_measured("COc1ccc(-n2c3cssc-3c(NC(=O)c3cc(C(F)(F)F)cc(C(F)(F)F)c3)c2=O)c(OC)c1")
30

---

ASSAY: Plasma clearance in mouse at 38.2 umol/kg, ip
REPORTED_ENDPOINT: clearance (mL/min/kg)

>>> value_measured("COc1ccc(-n2c3cssc-3c(NC(=O)c3cc(O)c(C(C)C)c(O)c3)c2=O)c(OC)c1")
6.3
